- measured on: Adenosine receptor A1 (Homo sapiens)
- test: Allosteric enhancer activity at human adenosine A1 receptor expressed in CHO cell membranes assessed as shift in [3H]CCPA Bmax level at 10 uM by saturation binding assay
quantity measured: fold change (FC)

Prompt: Need fold change (FC), item `Cc1ccc(CCc2sc(N)c(C(=O)c3ccc(Cl)cc3)c2CC(C)(C)C)cc1`
Response: 5

Prompt: Now this one: `Cc1ccc(C#Cc2sc(N)c(C(=O)c3ccc(Cl)cc3)c2CC(C)(C)C)cc1`
Response: 7.2

Prompt: Now this one: `Nc1sc(C#Cc2ccccc2)c(CN2CCN(c3ccccc3)CC2)c1C(=O)c1ccc(Cl)cc1`
Response: 2.8

New cases:
Prompt: Need fold change (FC), item `CCCCCC#Cc1sc(N)c(C(=O)c2ccc(Cl)cc2)c1CC(C)(C)C`
Response: 6.3

Prompt: Now this one: `Cc1cc(C)c(C#Cc2sc(N)c(C(=O)c3ccc(Cl)cc3)c2CC(C)(C)C)cc1C`
Response: 7

Prompt: Now this one: `COc1ccc(C#Cc2sc(N)c(C(=O)c3ccc(Cl)cc3)c2CC(C)(C)C)cc1`
Response: 7.4

Prompt: Now this one: `CC(C)(C)Cc1c(-c2ccccc2)sc(N)c1C(=O)c1ccc(Cl)cc1`
Response: 6.9

Prompt: Now this one: `CC(C)(C)Cc1c(CCc2ccccc2)sc(N)c1C(=O)c1ccc(Cl)cc1`
Response: 3.3

Prompt: Now this one: `Nc1sc(C#Cc2ccccc2)c(-c2ccccc2)c1C(=O)c1ccc(Cl)cc1`
Response: 1.9

Prompt: Now this one: `Cc1c(CCc2ccccc2)sc(N)c1C(=O)c1ccc(Cl)cc1`
Response: 2.2

Prompt: Now this one: `Nc1sc(C#Cc2ccccc2)cc1C(=O)c1ccc(Cl)cc1`
Response: 2

Prompt: Now this one: `Cc1ccc(C)c(C#Cc2sc(N)c(C(=O)c3ccc(Cl)cc3)c2CC(C)(C)C)c1`
Response: 6.2

Prompt: Now this one: `Cc1ccc(C#Cc2sc(N)c(C(=O)c3ccc(Cl)cc3)c2C)cc1`
Response: 2.3

Prompt: Now this one: `Nc1sc(-c2ccccc2)c(CN2CCN(c3ccccc3)CC2)c1C(=O)c1ccc(Cl)cc1`
Response: 11.5

---

- measured on: Adenosine receptor A1 (Homo sapiens) (UniProt P30542)
- test: Allosteric enhancer activity at human adenosine A1 receptor expressed in CHO cell membranes assessed as shift in CCPA binding Ki level at 10 uM by [3H]DPCPX competition binding assay
Collected fold change (FC) values appear next to each entry.
Enter the number alone.

Worked cases, fold change (FC) given:
Prompt: Need fold change (FC), item `Nc1sc(C#Cc2ccccc2)cc1C(=O)c1ccc(Cl)cc1`
Response: 1.5

Prompt: Now this one: `COc1ccc(C#Cc2sc(N)c(C(=O)c3ccc(Cl)cc3)c2CC(C)(C)C)cc1`
Response: 8.2

Now for a further compound.
Prompt: Need fold change (FC), item `COc1ccc(C#Cc2sc(N)c(C(=O)c3ccc(Cl)cc3)c2CC(C)(C)C)cc1OC`
Response: 6.8

---

- measured on: Adenosine receptor A1 (Homo sapiens)
- test: Allosteric enhancer activity at human adenosine A1 receptor expressed in CHO cells assessed as inhibition of forskolin-induced cAMP production at 100 nM in presence of 1 pM CCPA
- Assay type: functional, cell-based
Response key: label 1 means inhibition >= 40%; label 0 means inhibition < 40%.

Examples from the recorded data:
Prompt: Tell me whether inhibition is at least 40% here: `CCCCCc1ccc(C#Cc2sc(N)c(C(=O)c3ccc(Cl)cc3)c2CC(C)(C)C)cc1`
Response: label 1

Prompt: Now this one: `Nc1sc(C#Cc2ccccc2)cc1C(=O)c1ccc(Cl)cc1`
Response: label 0

Prompt: Now this one: `Nc1sc(C#Cc2ccccc2)c(CN2CCN(c3ccc(F)cc3)CC2)c1C(=O)c1ccc(Cl)cc1`
Response: label 0

Prompt: Now this one: `COc1ccc(C#Cc2sc(N)c(C(=O)c3ccc(Cl)cc3)c2CC(C)(C)C)cc1OC`
Response: label 1

Prompt: Now this one: `Cc1ccc(C#Cc2sc(N)c(C(=O)c3ccc(Cl)cc3)c2C)cc1`
Response: label 0

New cases:
Prompt: Tell me whether inhibition is at least 40% here: `Cc1c(C#Cc2ccccc2)sc(N)c1C(=O)c1ccc(Cl)cc1`
Response: label 0

Prompt: Now this one: `CCCCCC#Cc1sc(N)c(C(=O)c2ccc(Cl)cc2)c1CC(C)(C)C`
Response: label 1

Prompt: Now this one: `CC(C)(C)Cc1c(C#Cc2ccsc2)sc(N)c1C(=O)c1ccc(Cl)cc1`
Response: label 1

Prompt: Now this one: `Nc1sc(C#Cc2ccccc2)c(CN2CCN(c3ccc(Cl)c(Cl)c3)CC2)c1C(=O)c1ccc(Cl)cc1`
Response: label 0

Prompt: Now this one: `Nc1sc(C#Cc2ccccc2)c(-c2ccccc2)c1C(=O)c1ccc(Cl)cc1`
Response: label 0

Prompt: Now this one: `COc1ccc(C#Cc2sc(N)c(C(=O)c3ccc(Cl)cc3)c2CC(C)(C)C)cc1`
Response: label 1

Prompt: Now this one: `Nc1sc(C#Cc2ccccc2)c(CN2CCN(c3ccc(Cl)c(C(F)(F)F)c3)CC2)c1C(=O)c1ccc(Cl)cc1`
Response: label 0

Prompt: Now this one: `Cc1ccc(CCc2sc(N)c(C(=O)c3ccc(Cl)cc3)c2CC(C)(C)C)cc1`
Response: label 1

Prompt: Now this one: `Nc1sc(CCc2ccccc2)c(-c2ccccc2)c1C(=O)c1ccc(Cl)cc1`
Response: label 0

---

Collected fold change (FC) values appear next to each entry.
- measured on: Adenosine receptor A1 (Homo sapiens) (UniProt P30542)
- test: Allosteric enhancer activity at human adenosine A1 receptor expressed in CHO cell membranes assessed as shift in CCPA binding Ki level at 10 uM by [3H]DPCPX competition binding assay
Enter the number alone.

Prompt: Need fold change (FC), item `Cc1cccc(C#Cc2sc(N)c(C(=O)c3ccc(Cl)cc3)c2CC(C)(C)C)c1`
Response: 7.1

---

- measured on: Adenosine receptor A1 (Homo sapiens) (UniProt P30542)
- test: Allosteric enhancer activity at human adenosine A1 receptor expressed in CHO cell membranes assessed as shift in CCPA binding Ki level at 10 uM by [3H]DPCPX competition binding assay
Collected fold change (FC) values appear next to each entry.

Prompt: Need fold change (FC), item `Nc1sc(CCc2ccccc2)c(-c2ccccc2)c1C(=O)c1ccc(Cl)cc1`
Response: 1.6

New cases:
Prompt: Need fold change (FC), item `Nc1sc(C#Cc2ccccc2)c(CN2CCN(c3ccc(F)cc3)CC2)c1C(=O)c1ccc(Cl)cc1`
Response: 3.9

Prompt: Now this one: `CCCCCC#Cc1sc(N)c(C(=O)c2ccc(Cl)cc2)c1CC(C)(C)C`
Response: 4.1

Prompt: Now this one: `Cc1ccc(C#Cc2sc(N)c(C(=O)c3ccc(Cl)cc3)c2C)cc1`
Response: 1.7

---

- measured on: Adenosine receptor A1 (Homo sapiens) (UniProt P30542)
- Sequence (whole entry): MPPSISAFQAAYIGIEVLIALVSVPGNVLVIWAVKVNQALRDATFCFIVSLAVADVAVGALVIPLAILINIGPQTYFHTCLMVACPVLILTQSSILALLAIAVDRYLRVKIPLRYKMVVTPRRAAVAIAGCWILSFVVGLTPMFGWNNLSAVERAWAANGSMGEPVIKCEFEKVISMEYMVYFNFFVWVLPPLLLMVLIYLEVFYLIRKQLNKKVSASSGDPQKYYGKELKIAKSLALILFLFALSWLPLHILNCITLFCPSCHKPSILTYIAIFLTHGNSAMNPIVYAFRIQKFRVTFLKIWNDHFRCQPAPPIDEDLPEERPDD
- test: Allosteric enhancer activity at human adenosine A1 receptor expressed in CHO cells assessed as inhibition of forskolin-induced cAMP production at 10 uM
- Type: functional, cell-based
quantity measured: inhibition (%)
Express it in %; write the number only.

Worked cases, inhibition given:
Prompt: Need inhibition, item `Nc1sc(C#Cc2ccccc2)c(CN2CCN(c3ccc(C(F)(F)F)cc3)CC2)c1C(=O)c1ccc(Cl)cc1`
Response: 31

Prompt: Now this one: `Nc1sc(C#Cc2ccccc2)c(CN2CCN(c3ccccc3)CC2)c1C(=O)c1ccc(Cl)cc1`
Response: 29

Prompt: Now this one: `Cc1ccc(CCc2sc(N)c(C(=O)c3ccc(Cl)cc3)c2CC(C)(C)C)cc1`
Response: 43

Prompt: Now this one: `Cc1c(C#Cc2ccccc2)sc(N)c1C(=O)c1ccc(Cl)cc1`
Response: 27

Prompt: Now this one: `COc1ccc(C#Cc2sc(N)c(C(=O)c3ccc(Cl)cc3)c2CC(C)(C)C)cc1OC`
Response: 72

Prompt: Now this one: `COc1ccc(C#Cc2sc(N)c(C(=O)c3ccc(Cl)cc3)c2CC(C)(C)C)cc1`
Response: 71

Now for a further molecule.
Prompt: Need inhibition, item `Nc1sc(C#Cc2ccccc2)c(CN2CCN(c3ccc(Cl)c(C(F)(F)F)c3)CC2)c1C(=O)c1ccc(Cl)cc1`
Response: 30

Hello, the source for this data is ChEMBL document CHEMBL3352551, in case you need it.
